# TEST TARGET: FAAH (Mus musculus, UniProt O08914)
# Sequence (O08914 whole entry): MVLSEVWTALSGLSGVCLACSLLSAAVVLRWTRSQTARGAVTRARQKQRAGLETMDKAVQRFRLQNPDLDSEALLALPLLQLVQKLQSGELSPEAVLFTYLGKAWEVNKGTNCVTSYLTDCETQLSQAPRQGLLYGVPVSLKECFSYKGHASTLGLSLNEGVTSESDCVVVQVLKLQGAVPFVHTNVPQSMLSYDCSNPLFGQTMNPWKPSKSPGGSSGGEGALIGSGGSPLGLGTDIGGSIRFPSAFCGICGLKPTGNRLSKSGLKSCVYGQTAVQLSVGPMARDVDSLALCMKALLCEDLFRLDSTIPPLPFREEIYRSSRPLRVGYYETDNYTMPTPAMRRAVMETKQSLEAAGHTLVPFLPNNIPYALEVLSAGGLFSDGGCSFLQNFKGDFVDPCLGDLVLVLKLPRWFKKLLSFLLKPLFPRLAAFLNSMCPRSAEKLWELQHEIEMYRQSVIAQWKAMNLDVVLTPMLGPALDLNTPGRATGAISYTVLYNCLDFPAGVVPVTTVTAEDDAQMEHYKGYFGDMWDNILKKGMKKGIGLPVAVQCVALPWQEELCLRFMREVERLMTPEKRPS
# PROTOCOL NOTES: Proteome-wide serine hydrolase selectivity screen, competition with RPFP active site labeling
# ASSAY SETUP: inhibition of RPFP labeling
For each of the compounds below, state its pIC50.
pIC50 here: minus log base 10 of the concentration, concentration in moles per litre.

Item under review: "O=C(CCCCCCc1ccccc1)c1nnc(-c2cccnc2)o1" . Reported pIC50?
7.70

Item under review: "O=C(CCCCCCc1ccccc1)c1nnc(-c2ccco2)o1" . Reported pIC50?
9.00

Item under review: "O=C(CCCCCCCc1ccccc1)c1nnc(-c2ccccn2)o1" . Reported pIC50?
9.22

Item under review: "O=C(CCCCCc1ccccc1)c1nnc(-c2ccccn2)o1" . Reported pIC50?
8.40

Item under review: "O=C(CCCCCCc1ccccc1)c1nnc(-c2ccccc2)o1" . Reported pIC50?
7.60

Item under review: "O=C(CCCCCCCCc1ccccc1)c1nnc(-c2ccccn2)o1" . Reported pIC50?
9.10

Item under review: "O=C(CCCCCCc1ccccc1)c1nnc(-c2ccncc2)o1" . Reported pIC50?
7.70

Item under review: "O=C(CCCCCCc1ccccc1)c1nnc(-c2ccccn2)o1" . Reported pIC50?
9.00

* * *

# TEST TARGET: triacylglycerol hydrolase (TGH) (Mus musculus)
# Sequence (Q8VCT4 19-565): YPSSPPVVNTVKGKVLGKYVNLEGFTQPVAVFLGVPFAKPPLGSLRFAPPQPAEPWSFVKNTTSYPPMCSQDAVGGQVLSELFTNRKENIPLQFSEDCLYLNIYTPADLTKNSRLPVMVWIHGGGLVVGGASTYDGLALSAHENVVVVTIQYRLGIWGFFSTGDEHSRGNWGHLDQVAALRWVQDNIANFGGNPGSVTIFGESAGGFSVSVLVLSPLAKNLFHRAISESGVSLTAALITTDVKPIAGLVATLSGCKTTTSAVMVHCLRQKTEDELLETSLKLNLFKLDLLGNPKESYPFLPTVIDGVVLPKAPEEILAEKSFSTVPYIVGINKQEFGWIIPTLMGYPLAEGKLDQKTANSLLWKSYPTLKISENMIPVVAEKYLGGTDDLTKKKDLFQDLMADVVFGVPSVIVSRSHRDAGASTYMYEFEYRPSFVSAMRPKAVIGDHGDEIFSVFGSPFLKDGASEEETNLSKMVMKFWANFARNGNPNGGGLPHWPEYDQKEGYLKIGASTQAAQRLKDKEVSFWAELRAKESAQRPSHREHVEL
# PROTOCOL NOTES: Proteome-wide serine hydrolase selectivity screen, competition with RPFP active site labeling
# ASSAY SETUP: inhibition of RPFP labeling
ENDPOINT LABEL: pIC50
pIC50 here: minus log base 10 of the concentration, concentration in moles per litre.

Item under review: O=C(CCCCCCc1ccccc1)c1nnc(-c2ccco2)o1 [Example 11] . Reported pIC50?
7.10

Item under review: O=C(CCCCCCCc1ccccc1)c1nnc(-c2ccccn2)o1 [Example 3] . Reported pIC50?
6.70

Item under review: O=C(CCCCCCc1ccccc1)c1nnc(-c2cccnc2)o1 [Example 9] . Reported pIC50?
7.00

Item under review: O=C(CCCCCCc1ccccc1)c1nnc(-c2ccncc2)o1 [Example 10] . Reported pIC50?
7.52

Item under review: O=C(CCCCCc1ccccc1)c1nnc(-c2ccccn2)o1 [Example 2] . Reported pIC50?
7.52

Item under review: O=C(CCCCCCc1ccccc1)c1nnc(-c2ccccn2)o1 [Example 1] . Reported pIC50?
6.85

Item under review: O=C(CCCCCCc1ccccc1)c1nnc(-c2ccccc2)o1 [Example 6] . Reported pIC50?
6.60

Item under review: O=C(CCCCCCCCc1ccccc1)c1nnc(-c2ccccn2)o1 [Example 4] . Reported pIC50?
6.30

* * *

# TEST TARGET: FAAH (Rattus norvegicus)
# Construct: using a solubilized liver plasma membrane extract containing FMH; from tissue; host or cells: liver plasma membrane (solubilized extract)
# Sequence (P97612 whole entry): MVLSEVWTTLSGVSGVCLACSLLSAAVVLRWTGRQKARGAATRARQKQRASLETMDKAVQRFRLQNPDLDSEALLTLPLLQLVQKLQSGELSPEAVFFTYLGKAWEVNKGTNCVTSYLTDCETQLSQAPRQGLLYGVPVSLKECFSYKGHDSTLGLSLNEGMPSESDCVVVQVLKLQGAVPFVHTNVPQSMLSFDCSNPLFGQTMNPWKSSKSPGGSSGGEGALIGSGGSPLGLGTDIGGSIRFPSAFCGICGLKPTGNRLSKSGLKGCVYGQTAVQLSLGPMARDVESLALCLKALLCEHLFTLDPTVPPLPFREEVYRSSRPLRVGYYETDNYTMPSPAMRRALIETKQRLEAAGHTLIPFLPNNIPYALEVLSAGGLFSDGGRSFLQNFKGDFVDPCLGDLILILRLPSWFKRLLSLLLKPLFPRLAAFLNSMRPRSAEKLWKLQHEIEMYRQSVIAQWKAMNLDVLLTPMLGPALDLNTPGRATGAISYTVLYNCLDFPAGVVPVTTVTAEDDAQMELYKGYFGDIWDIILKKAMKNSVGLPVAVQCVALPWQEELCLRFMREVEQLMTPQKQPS
# PROTOCOL NOTES: FAAH enzyme assay, hydrolysis of 14C-oleamide by solubilized liver plasma membrane extract
# Format: biochemical
# ASSAY SETUP: Table 1; Dixon method, 14C-oleamide substrate, pH 9.0, 20-23° C.; read-out: Ki
ENDPOINT LABEL: pKi
pKi here: minus log base 10 of the concentration, concentration in moles per litre.

Item under review: "O=C(CCCCCCc1ccccc1)c1nnc(-c2ccccc2)o1" . Reported pKi?
8.70

Item under review: "O=C(CCCCCCCCc1ccccc1)c1nnc(-c2ccccn2)o1" . Reported pKi?
9.08

Item under review: "O=C(CCCCCCc1ccccc1)c1nnc(-c2cccnc2)o1" . Reported pKi?
9.00

Item under review: "O=C(CCCCCc1ccccc1)c1nnc(-c2ccccn2)o1" . Reported pKi?
9.07

Item under review: "CCCCCCCC/C=C\CCCCCCCC(=O)c1nnc(-c2ccccc2)o1" . Reported pKi?
7.80
